Source listed as patent US20210324028A1.

# measured.on: T1, human IL-2Rβ (human, UniProt P14784 27-240, limits assumed)
# T1 construct: also called hIL-2Rβ; IL-2 receptor beta
# T1 sequence (looked up): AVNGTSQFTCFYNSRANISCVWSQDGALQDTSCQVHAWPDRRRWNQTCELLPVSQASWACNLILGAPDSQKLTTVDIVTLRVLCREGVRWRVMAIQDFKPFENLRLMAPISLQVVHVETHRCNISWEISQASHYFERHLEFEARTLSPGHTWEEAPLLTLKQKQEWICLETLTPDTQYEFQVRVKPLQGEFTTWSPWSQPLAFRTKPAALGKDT
# protocol.details: SPR, steady state
measured.quantity: Kd

QUERY: Bench note: what Kd did hIL-15 V49R/D30L (ligand) NWVNVISDLKKIEDLIQSMHIDATLYTESLVHPSCKVTAMKCFLLELQRISLESGDASIHDTVENLIILANNSLSSNGNVTESGCKECEELEEKNIKEFLQSFVHIVQMFINTGGGGSGHHHHHHHHGGGLNDIFEAQKIEWHE show?
RESULT: 277 nM

QUERY: # lookup: Kd of hIL-15 V49R/L69I (ligand) NWVNVISDLKKIEDLIQSMHIDATLYTESDVHPSCKVTAMKCFLLELQRISLESGDASIHDTVENLIIIANNSLSSNGNVTESGCKECEELEEKNIKEFLQSFVHIVQMFINTGGGGSGHHHHHHHHGGGLNDIFEAQKIEWHE
RESULT: 306 nM

QUERY: Kd for hIL-15 V49R/S7N (ligand) NWVNVINDLKKIEDLIQSMHIDATLYTESDVHPSCKVTAMKCFLLELQRISLESGDASIHDTVENLIILANNSLSSNGNVTESGCKECEELEEKNIKEFLQSFVHIVQMFINTGGGGSGHHHHHHHHGGGLNDIFEAQKIEWHE ?
RESULT: > 500 nM

QUERY: So what does the record say about Kd for hIL-15 V49R/I68N (ligand) NWVNVISDLKKIEDLIQSMHIDATLYTESDVHPSCKVTAMKCFLLELQRISLESGDASIHDTVENLINLANNSLSSNGNVTESGCKECEELEEKNIKEFLQSFVHIVQMFINTGGGGSGHHHHHHHHGGGLNDIFEAQKIEWHE ?
RESULT: > 1000 nM

QUERY: Item under review: hIL-15 V49R/N4Q (ligand) NWVQVISDLKKIEDLIQSMHIDATLYTESDVHPSCKVTAMKCFLLELQRISLESGDASIHDTVENLIILANNSLSSNGNVTESGCKECEELEEKNIKEFLQSFVHIVQMFINTGGGGSGHHHHHHHHGGGLNDIFEAQKIEWHE . Reported Kd?
RESULT: > 500 nM

Proceeding to the next binder to report its Kd.
QUERY: Quick check: Kd of hIL-15 V49R/N65D (ligand) NWVNVISDLKKIEDLIQSMHIDATLYTESDVHPSCKVTAMKCFLLELQRISLESGDASIHDTVEDLIILANNSLSSNGNVTESGCKECEELEEKNIKEFLQSFVHIVQMFINTGGGGSGHHHHHHHHGGGLNDIFEAQKIEWHE ?
RESULT: > 500 nM
